Tested on: 276233-004-R-J1-PDC complex spheroid viability;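 also: spheroids exposed to drugs for seven days; 100% = DMSO vehicle control viability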
Assay: Anticancer human tumor 276233-004-R-J1-PDC patient-derived colon adenocarcinoma cell line growth inhibition [GQUAD]
Details: second compound 0.316 µM; first compound 0.0316 µM; active compounds read low
viability, T/C by entry:

Recorded results for 2 compounds are shown here.
C=CCn1c(=O)c2cnc(Nc3ccc(N4CCN(C)CC4)cc3)nc2n1-c1cccc(C(C)(C)O)n1 + Cc1cnc(CNC(=O)c2c(=O)c3ccc(N4CCCN(C)CC4)nc3n3c2sc2ccccc23)cn1 :: 89.8%
CCc1c2c(nc3ccc(O)cc13)-c1cc3c(c(=O)n1C2)COC(=O)[C@]3(O)CC + CN(C)c1ccc(Nc2c3ccc(NC(=O)CCN4CCCC4)cc3nc3cc(NC(=O)CCN4CCCC4)ccc23)cc1 :: 76.4%

Ask: Given the compound Nc1ccn(C2OC(CO)C(O)C2(F)F)c(=O)n1 (stereo unspecified) + Cc1[nH]c2ccc(F)cc2c1-c1nc2c3cccnc3c3ncccc3c2[nH]1 , what is its reported viability, T/C?
Reply: 67%

Ask: Given the compound CCCS(=O)(=O)Nc1ccc(F)c(C(=O)c2c[nH]c3ncc(-c4ccc(Cl)cc4)cc23)c1F + Cc1cnc(CNC(=O)c2c(=O)c3ccc(N4CCCN(C)CC4)nc3n3c2sc2ccccc23)cn1 , what is its reported viability, T/C?
Reply: 80.8%

Ask: Given the compound COc1cccc2c1C(=O)c1c(O)c3c(c(O)c1C2=O)CC(O)(C(=O)CO)CC3OC1CC(N)C(O)C(C)O1 (stereo unspecified) + Cc1cnc(CNC(=O)c2c(=O)c3ccc(N4CCCN(C)CC4)nc3n3c2sc2ccccc23)cn1 , what is its reported viability, T/C?
Reply: 80.4%

Ask: Given the compound CC1COCCN1c1cc(C2(S(C)(=N)=O)CC2)nc(-c2ccnc3[nH]ccc23)n1 (stereo unspecified) + Cc1[nH]c2ccc(F)cc2c1-c1nc2c3cccnc3c3ncccc3c2[nH]1 , what is its reported viability, T/C?
Reply: 97.3%

Ask: Given the compound O=c1[nH]cc(F)c(=O)[nH]1 + Cc1[nH]c2ccc(F)cc2c1-c1nc2c3cccnc3c3ncccc3c2[nH]1 , what is its reported viability, T/C?
Reply: 75.7%

Ask: Given the compound CC[C@@]1(O)C(=O)OCc2c1cc1n(c2=O)Cc2cc3c(CN(C)C)c(O)ccc3nc2-1 + Cc1[nH]c2ccc(F)cc2c1-c1nc2c3cccnc3c3ncccc3c2[nH]1 , what is its reported viability, T/C?
Reply: 89.6%

Ask: Given the compound O=C(NO)c1cnc(N2CCN(S(=O)(=O)c3ccc4ccccc4c3)CC2)nc1 + Cc1cnc(CNC(=O)c2c(=O)c3ccc(N4CCCN(C)CC4)nc3n3c2sc2ccccc23)cn1 , what is its reported viability, T/C?
Reply: 84.6%

Ask: Given the compound Cc1[nH]c2ccccc2c1CCNCc1ccc(/C=C/C(=O)NO)cc1 + Cc1cnc(CNC(=O)c2c(=O)c3ccc(N4CCCN(C)CC4)nc3n3c2sc2ccccc23)cn1 , what is its reported viability, T/C?
Reply: 74.3%

Ask: Given the compound COc1ncnc(C2CC2)c1-c1ncc2cnn(Cc3ccc(-c4nc(C(F)(F)F)cn4C(C)C)cc3)c2n1 + Cc1cnc(CNC(=O)c2c(=O)c3ccc(N4CCCN(C)CC4)nc3n3c2sc2ccccc23)cn1 , what is its reported viability, T/C?
Reply: 87.3%
